Reported solubility values follow for various compounds
Experiment: Aqueous solubility of the compound
Assay type: physicochemical

Example cases with answers are listed next.
CCCN(CC[C@]1(O)C[C@@H](NC(=O)c2ccc3ccccc3c2)C1)[C@H]1CCc2nc(N)sc2C1.Cl    > 100 mg/mL
CCCN(CC[C@H]1CC[C@H](NC(=O)c2ccc3ccccc3c2)CC1)[C@H]1CCc2nc(N)sc2C1    > 50 mg/mL
CCCN(CC[C@]1(O)C[C@H](NC(=O)c2ccc3ccccc3c2)C1)[C@H]1CCc2nc(N)sc2C1.Cl    > 100 mg/mL

Turning to the following compound.
Exercise: Look up solubility of `CCCN(CC[C@H]1CC[C@H](NC(=O)/C=C/c2ccccc2)CC1)[C@H]1CCc2nc(N)sc2C1` and report it.
Solution: > 50 mg/mL
